src = the supplement of paper PMC10127200

tested on: OVCAR4; assay: Euclidean distance of Cell Painting phenotypic profile (signed KS, 77 features) to DMSO centroid (dimensionless distance); 5 or 10 uM (library dependent); higher = stronger phenotypic change vs DMSO (phenoactivity); details: 48 h
experimental.endpoint: Euclidean distance
One number for each entry.

Here are 2 molecules together with their reported answers.
C[C@]12CC[C@@H]3c4ccc(O)cc4CC[C@H]3[C@@H]1CC[C@@H]2OC(=O)CCC1CCCC1 [Estradiol Cypionate]    1.34
O=c1c(O)c(-c2ccc(O)c(O)c2)oc2cc(O)ccc12 [Fisetin]    0.911

Please supply Euclidean distance for each of the following items, keeping them in order.
1. CO/N=C(\C(=O)N[C@@H]1C(=O)N2C(C(=O)O)=C(CSC(=O)c3ccco3)CS[C@H]12)c1csc(N)n1 [Ceftiofur]
2. NC(=O)NC1NC(=O)NC1=O (centres undefined) [Allantoin]

Reply:
1. 1.07
2. 1.68

###

Exercise: state measured Euclidean distance for each of the compounds provided.
system: OVCAR4; experiment: Euclidean distance of Cell Painting phenotypic profile (signed KS, 77 features) to DMSO centroid (dimensionless distance); 5 or 10 uM (library dependent); higher = stronger phenotypic change vs DMSO (phenoactivity); settings: 48 h
One number for each entry.

COc1nc(C)nc(Cl)c1NC1=NCCN1    1.43

Batch request: Euclidean distance per item, same order as input.
1. O=P(O)(O)C(O)(Cn1ccnc1)P(=O)(O)O
2. CC(C)Cc1ccc(C(C)C(=O)O)cc1 (configuration not stated)
3. Cc1cccn2c(=O)c(-c3nnn[nH]3)cnc12
4. Clc1ccc(Cn2c(CN3CCCC3)nc3ccccc32)cc1

Reply:
[1.11, 1.07, 1.05, 0.648]

###

Give measured Euclidean distance for each item. Keep answers brief.
system: HEPG2; assay: Euclidean distance of Cell Painting phenotypic profile (signed KS, 77 features) to DMSO centroid (dimensionless distance); 5 or 10 uM (library dependent); higher = stronger phenotypic change vs DMSO (phenoactivity); settings: 48 h
Answers are plain numbers.

Past entries and their recorded results:
CC(C)=CCC/C(C)=C/CC/C(C)=C/CCC(=O)OC/C=C(\C)CCC=C(C)C [Gefarnate]    0.64
CO[C@H]1/C=C/O[C@@]2(C)Oc3c(C)c(O)c4c(O)c(c5c(nc6cc(C)ccn65)c4c3C2=O)NC(=O)/C(C)=C\C=C\[C@H](C)[C@H](O)[C@@H](C)[C@@H](O)[C@@H](C)[C@H](OC(C)=O)[C@@H]1C    1.9
C[C@@H](O)[C@H]1C(=O)N2C(C(=O)[O-])=C(SC3Cn4cnc[n+]4C3)[C@H](C)[C@H]12 (stereo not given in full)    1.02
COc1cc2ncnc(Nc3cccc(Cl)c3F)c2cc1OC(=O)N1CCN(C)C[C@H]1C    0.691
O=C1Nc2ccccc2C1=O    1.03

Quick one: give me Euclidean distance for each item below, same order please.
1. CO[C@H]1C[C@@H]2CC[C@@H](C)[C@@](O)(O2)C(=O)C(=O)N2CCCC[C@H]2C(=O)O[C@H]([C@H](C)C[C@@H]2CC[C@@H](OP(C)(C)=O)[C@H](OC)C2)CC(=O)[C@H](C)/C=C(\C)[C@@H](O)[C@@H](OC)C(=O)[C@H](C)C[C@H](C)/C=C/C=C/C=C/1C [Deforolimus]
2. O=C(O)C1CSCN1 (stereo not given)

Reply:
[1.23, 0.578]
